# measurementTarget: Coagulation factor XI (Homo sapiens) (UniProt P03951)
# Sequence (P03951 19-387 limits assumed): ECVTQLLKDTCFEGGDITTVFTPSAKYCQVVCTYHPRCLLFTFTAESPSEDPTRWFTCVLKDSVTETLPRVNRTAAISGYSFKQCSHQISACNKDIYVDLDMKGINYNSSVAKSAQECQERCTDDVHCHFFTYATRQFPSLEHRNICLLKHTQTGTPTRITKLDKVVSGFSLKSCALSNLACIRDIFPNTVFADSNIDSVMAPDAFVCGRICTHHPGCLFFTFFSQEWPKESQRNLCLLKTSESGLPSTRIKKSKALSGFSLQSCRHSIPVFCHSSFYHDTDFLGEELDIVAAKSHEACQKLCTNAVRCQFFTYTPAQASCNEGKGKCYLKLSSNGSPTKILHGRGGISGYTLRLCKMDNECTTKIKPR
# Sequence (P03951 388-625 limits assumed): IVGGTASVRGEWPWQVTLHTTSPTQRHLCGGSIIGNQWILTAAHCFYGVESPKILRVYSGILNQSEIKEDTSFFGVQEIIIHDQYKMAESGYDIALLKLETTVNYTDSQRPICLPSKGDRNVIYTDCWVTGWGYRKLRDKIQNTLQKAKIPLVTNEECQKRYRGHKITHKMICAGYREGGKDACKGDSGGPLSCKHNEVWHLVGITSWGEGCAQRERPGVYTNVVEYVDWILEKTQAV
# assayMethodText: Inhibition of human factor 11a assessed as residual activity at 500 uM by spectrophotometric assay
Give Activity for every item shown.
Just the number in %, nothing appended.

# input Requested field: Activity. Item: CCOC(=O)c1c(COc2cc3c(C(=O)OCC)coc3cc2OC)[nH]c2ccc(OS(=O)(=O)O)cc12
# output 111

# input Entry CCOC(=O)c1c(C)[nH]c2ccc(OS(=O)(=O)O)cc12 please
# output 114

# input Entry COc1cc2occ(C(=O)OC(C)(C)C)c2cc1OCc1nc2ccc(OS(=O)(=O)O)cc2s1 please
# output 0

# input Entry Cc1nc2ccc(OCc3nc4ccc(OS(=O)(=O)O)cc4s3)cc2s1 please
# output 120

# input Entry CCOC(=O)c1c(C)[nH]c2ccc(OCc3c(C(=O)OCC)c4cc(OS(=O)(=O)O)ccc4n3C(=O)OC(C)(C)C)cc12 please
# output 0

# input Entry CCOC(=O)c1c(Cc2ccccc2)oc2cc(OC)c(OCc3nc4ccc(OS(=O)(=O)O)cc4s3)cc12 please
# output 88

# input Entry CCOC(=O)c1c(C)oc2cc(OC)c(OCc3oc4cc(OC)c(OCc5nc6ccc(OS(=O)(=O)O)cc6s5)cc4c3C(=O)OCC)cc12 please
# output 62

# input Entry CCOC(=O)c1c(COc2cc3c(C(=O)OCC)c(Cc4ccccc4)oc3cc2OC)[nH]c2ccc(OS(=O)(=O)O)cc12 please
# output 0

# input Entry Cc1nc2ccc(OS(=O)(=O)O)cc2s1 please
# output 52

# input Entry CCOC(=O)c1c(COc2cc3c(C(=O)OCC)c(COc4cc5c(C(=O)OCC)c(C)oc5cc4OC)oc3cc2OC)[nH]c2ccc(OS(=O)(=O)O)cc12 please
# output 16

----------
# measurementTarget: Prothrombin (Homo sapiens) (UniProt P00734)
# assayMethodText: Inhibition of human thrombin using spectrozyme TH as substrate assessed as residual activity at 500 uM by spectrophotometric assay
valueType: Activity (%)
Just the number in %, nothing appended.

# input Requested field: Activity. Item: CCOC(=O)c1c(COc2cc3c(C(=O)OCC)c(Cc4ccccc4)oc3cc2OC)[nH]c2ccc(OS(=O)(=O)O)cc12
# output 29

# input Entry Cc1nc2ccc(OS(=O)(=O)O)cc2s1 please
# output 99

# input Entry CCOC(=O)c1c(COc2cc3c(C(=O)OCC)coc3cc2OC)[nH]c2ccc(OS(=O)(=O)O)cc12 please
# output 102

# input Entry CCOC(=O)c1c(COc2cc3c(C(=O)OCC)c(COc4cc5c(C(=O)OCC)c(C)oc5cc4OC)oc3cc2OC)[nH]c2ccc(OS(=O)(=O)O)cc12 please
# output 46

# input Entry CCOC(=O)c1c(C)[nH]c2ccc(OCc3c(C(=O)OCC)c4cc(OS(=O)(=O)O)ccc4n3C(=O)OC(C)(C)C)cc12 please
# output 42

# input Entry COc1cc2occ(C(=O)OC(C)(C)C)c2cc1OCc1nc2ccc(OS(=O)(=O)O)cc2s1 please
# output 30

# input Entry CCOC(=O)c1c(Cc2ccccc2)oc2cc(OC)c(OCc3nc4ccc(OS(=O)(=O)O)cc4s3)cc12 please
# output 108

# input Entry CCOC(=O)c1c(C)[nH]c2ccc(OS(=O)(=O)O)cc12 please
# output 100

# input Entry Cc1nc2ccc(OCc3nc4ccc(OS(=O)(=O)O)cc4s3)cc2s1 please
# output 48

# input Entry CCOC(=O)c1c(C)oc2cc(OC)c(OCc3oc4cc(OC)c(OCc5nc6ccc(OS(=O)(=O)O)cc6s5)cc4c3C(=O)OCC)cc12 please
# output 104
